# measured target: human ether-à-go-go-related gene (hERG) potassium channel (human);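 further: peak tail current of the secondary pulse compared with the same well before compound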
# Sequence (Q12809 whole entry, looked up): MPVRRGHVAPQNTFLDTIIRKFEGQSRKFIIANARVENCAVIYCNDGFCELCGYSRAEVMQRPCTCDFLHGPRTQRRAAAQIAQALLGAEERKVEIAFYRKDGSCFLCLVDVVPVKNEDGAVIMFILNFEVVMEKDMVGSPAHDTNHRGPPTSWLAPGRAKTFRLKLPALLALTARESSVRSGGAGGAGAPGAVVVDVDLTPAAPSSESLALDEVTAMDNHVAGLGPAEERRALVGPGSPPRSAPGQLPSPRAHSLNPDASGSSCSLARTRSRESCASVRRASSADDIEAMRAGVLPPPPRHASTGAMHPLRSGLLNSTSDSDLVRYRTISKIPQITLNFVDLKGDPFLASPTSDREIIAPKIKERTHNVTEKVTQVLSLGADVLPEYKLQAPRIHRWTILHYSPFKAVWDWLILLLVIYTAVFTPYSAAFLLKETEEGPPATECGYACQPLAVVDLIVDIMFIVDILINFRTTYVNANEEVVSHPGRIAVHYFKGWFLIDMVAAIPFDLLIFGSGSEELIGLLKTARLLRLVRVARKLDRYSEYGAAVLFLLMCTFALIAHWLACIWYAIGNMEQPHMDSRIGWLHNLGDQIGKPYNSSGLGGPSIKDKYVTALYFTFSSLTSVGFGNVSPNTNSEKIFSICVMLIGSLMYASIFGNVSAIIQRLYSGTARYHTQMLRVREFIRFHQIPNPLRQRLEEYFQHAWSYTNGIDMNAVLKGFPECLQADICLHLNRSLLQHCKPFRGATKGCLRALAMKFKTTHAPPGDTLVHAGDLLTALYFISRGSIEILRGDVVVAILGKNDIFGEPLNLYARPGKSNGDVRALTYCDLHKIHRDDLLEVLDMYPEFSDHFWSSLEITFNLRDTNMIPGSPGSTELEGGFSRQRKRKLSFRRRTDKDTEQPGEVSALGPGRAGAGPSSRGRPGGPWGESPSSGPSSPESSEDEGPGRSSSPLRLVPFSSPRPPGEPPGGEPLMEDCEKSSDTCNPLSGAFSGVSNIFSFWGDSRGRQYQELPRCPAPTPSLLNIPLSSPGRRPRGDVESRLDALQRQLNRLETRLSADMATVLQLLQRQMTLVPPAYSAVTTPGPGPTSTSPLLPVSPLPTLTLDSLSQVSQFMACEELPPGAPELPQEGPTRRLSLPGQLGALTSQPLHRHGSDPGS
# assay explanation: primary screen, population patch clamp on CHO cells stably expressing hERG; higher = less effect of the substance
The campaign covered roughly 310,000 compounds. About 14,000 (4.5%) showed an effect of 50% or more. The effect is printed as a negative number. The full list was thinned out, with strong results kept by preference.
Kindly state hERG current change (%, negative = inhibition) at 10uM for each of the entries shown.
Give just the numeric value; % need not be written.

Would you kindly share the measured hERG current change (%, negative = inhibition) at 10uM for COc1cccc(-c2nc(-c3ccccn3)no2)c1OC ? 0.968

Would you kindly share the measured hERG current change (%, negative = inhibition) at 10uM for C[C@@H](CSc1ccc(Br)cc1)CN1CC[C@H](O)CCC1=O ? -12

Would you kindly share the measured hERG current change (%, negative = inhibition) at 10uM for CN(Cc1ccc(C#CCCO)cc1)CC1CCCN(CCc2ccc(Cl)cc2)C1 (stereo not shown) ? -70.9

Would you kindly share the measured hERG current change (%, negative = inhibition) at 10uM for O=[N+]([O-])c1cccc(S(=O)(=O)[N-]c2nc3ccccc3nc2-n2cc[n+](Cc3ccccc3)c2)c1 ? -5.11

Would you kindly share the measured hERG current change (%, negative = inhibition) at 10uM for OC(COC(c1ccccc1)c1ccccc1)CN1CCN(c2cccc(Cl)c2)CC1 (stereo not shown) ? 6.16

Would you kindly share the measured hERG current change (%, negative = inhibition) at 10uM for O=C(N/N=C/c1ccc(O)cc1)c1ccc(COc2cc(Cl)ccc2Cl)o1 ? 7.07

Would you kindly share the measured hERG current change (%, negative = inhibition) at 10uM for Cc1onc(-c2ccccc2Cl)c1C(=O)Nc1ccc(OCC(=O)N2CCOCC2)cc1 ? -3.95

Would you kindly share the measured hERG current change (%, negative = inhibition) at 10uM for CC1CCCCC1NC(=O)CCN1C(=O)C2C3C=CC(C3)C2C1=O (stereo not shown) ? 13

Would you kindly share the measured hERG current change (%, negative = inhibition) at 10uM for COc1cc(C2c3c(-c4ccccc4)n[nH]c3C(=O)N2c2ccc(C(=O)O)cc2)ccc1O (stereo not shown) ? 8.38

Would you kindly share the measured hERG current change (%, negative = inhibition) at 10uM for O=C(O)c1cc2c(cn1)[nH]c1ccccc12 ? 10.9

Would you kindly share the measured hERG current change (%, negative = inhibition) at 10uM for Cc1ccc(Nc2c(-c3ccccn3)nc3cccc(C)n23)cc1 ? 10.1

Would you kindly share the measured hERG current change (%, negative = inhibition) at 10uM for O=[N+]([O-])c1cc(CS(=O)(=O)Oc2ccc(Cl)cc2)c(O)c([N+](=O)[O-])c1 ? 15.1

Would you kindly share the measured hERG current change (%, negative = inhibition) at 10uM for O=C(NCCCn1ccnc1)C(=O)Nc1ccccc1 ? 11.8

Would you kindly share the measured hERG current change (%, negative = inhibition) at 10uM for CN1CCCN(CC(O)COCc2cccs2)CC1 (stereo not shown) ? -2.94

Would you kindly share the measured hERG current change (%, negative = inhibition) at 10uM for COc1cc2cc(CN(CCN3CCOCC3)C(=O)Nc3ccc(F)cc3)c(=O)[nH]c2cc1OC ? -28.6

Would you kindly share the measured hERG current change (%, negative = inhibition) at 10uM for OCCC#Cc1ccc(CN2CCN(C3CCCCC3)C(CCO)C2)cc1 (stereo not shown) ? -0.113

Would you kindly share the measured hERG current change (%, negative = inhibition) at 10uM for O=C(c1ccccc1)N1N=C(c2ccccc2)CC1c1ccccc1[N+](=O)[O-] (stereo not shown) ? 13.4

Would you kindly share the measured hERG current change (%, negative = inhibition) at 10uM for CCn1c(SCC(=O)N2CCCc3ccccc32)nc2c(c1=O)SC(C)C2 (stereo not shown) ? -24.7

Would you kindly share the measured hERG current change (%, negative = inhibition) at 10uM for O=c1c[n+]([O-])c2ccccc2n1OCc1ccccn1 ? 18.9

Would you kindly share the measured hERG current change (%, negative = inhibition) at 10uM for CCN(Cc1ccc(C#CCCO)cc1)CC1CCCN(CCc2cccc(F)c2)C1 (stereo not shown) ? -65.2

Would you kindly share the measured hERG current change (%, negative = inhibition) at 10uM for CCN=C1SC(C(N)=O)CC(=O)N1CC (stereo not shown) ? 12.9

Would you kindly share the measured hERG current change (%, negative = inhibition) at 10uM for COc1ccc(C2/C=C\CN(S(=O)(=O)/C=C/c3ccccc3)[C@H](Cc3ccccc3)C(=O)N2Cc2ccc(F)cc2)cc1 (stereo partly shown) ? 8.05

Would you kindly share the measured hERG current change (%, negative = inhibition) at 10uM for Cc1ccc(C)c2[nH]c(=O)c(CN(CCN3CCCC3)C(=O)Nc3ccc(F)cc3)cc12 ? -75.7

Would you kindly share the measured hERG current change (%, negative = inhibition) at 10uM for CCN(Cc1ccc(C#CCCO)cc1)CC1CCCN(CCc2cccc(OC)c2)C1 (stereo not shown) ? -58.5

Would you kindly share the measured hERG current change (%, negative = inhibition) at 10uM for Cl.OC(COCc1cccs1)CN1CCCCCC1 (stereo not shown) ? -21.9

Would you kindly share the measured hERG current change (%, negative = inhibition) at 10uM for OC(COCc1cccs1)CN1CCN(c2cccc(C(F)(F)F)c2)CC1 (stereo not shown) ? -69.6

Would you kindly share the measured hERG current change (%, negative = inhibition) at 10uM for O=C(NCc1ccc2c(c1)OCO2)c1ccccc1Cl ? -2.6

Would you kindly share the measured hERG current change (%, negative = inhibition) at 10uM for Cn1cc(C(=O)OCC(=O)NC2CCCC2)c2ccccc21 ? 7.9

Would you kindly share the measured hERG current change (%, negative = inhibition) at 10uM for COc1ccc(CN(C)C(C)C(=O)Nc2cccc3ccccc23)cc1 (stereo not shown) ? -14.1

Would you kindly share the measured hERG current change (%, negative = inhibition) at 10uM for CC(=O)Nc1ccc(NC(=O)c2cc(=O)c3cc(C)c(C)cc3o2)cc1 ? 24.6

Would you kindly share the measured hERG current change (%, negative = inhibition) at 10uM for CCN(Cc1ccc(OC)c(COC)c1)CC1CCCN(CCc2cccc(OC)c2)C1 (stereo not shown) ? -26.3
